# Experimental Target: Cannabinoid receptor 2 (Homo sapiens)
# Sequence (P34972 whole entry): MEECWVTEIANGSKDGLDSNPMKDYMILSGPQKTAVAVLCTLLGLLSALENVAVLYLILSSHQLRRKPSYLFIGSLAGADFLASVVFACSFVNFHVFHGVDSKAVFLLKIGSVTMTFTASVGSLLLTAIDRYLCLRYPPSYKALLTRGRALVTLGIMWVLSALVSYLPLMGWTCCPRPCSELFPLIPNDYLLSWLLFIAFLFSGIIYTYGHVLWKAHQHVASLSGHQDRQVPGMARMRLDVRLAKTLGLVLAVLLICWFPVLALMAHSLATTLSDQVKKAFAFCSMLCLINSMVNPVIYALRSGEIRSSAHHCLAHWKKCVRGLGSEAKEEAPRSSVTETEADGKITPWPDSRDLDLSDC
# Protocol Notes: Agonist activity at human CB2R expressed in CHO cells by Ca2+ flux assay
# Assay type: functional, cell-based
Mark criterion met only for Emax values smaller than 50%; exact matches and larger values are criterion not met.

• C1=C(CCN2CCOCC2)c2ccccc2/C1=C/c1cccc2ccccc12 = criterion met
• C1=C(CCN2CCOCC2)c2ccccc2/C1=C/c1ccc2c3c(cccc13)CC2 = criterion met
• CCc1ccc(/C=C2\C=C(CCN3CCOCC3)c3ccccc32)c2ccccc12 = criterion not met
• CCCc1ccc(/C=C2\C=C(CCN3CCOCC3)c3ccccc32)c2ccccc12 = criterion not met
• COc1ccc(/C=C2\C=C(CCN3CCOCC3)c3ccccc32)c2ccccc12 = criterion not met
